Molecular target: T1, nSR100 (Mus musculus, UniProt Q8BKA3)
T1 construct: host or cells: mouse N2A cells
T1 sequence (Q8BKA3 1-608): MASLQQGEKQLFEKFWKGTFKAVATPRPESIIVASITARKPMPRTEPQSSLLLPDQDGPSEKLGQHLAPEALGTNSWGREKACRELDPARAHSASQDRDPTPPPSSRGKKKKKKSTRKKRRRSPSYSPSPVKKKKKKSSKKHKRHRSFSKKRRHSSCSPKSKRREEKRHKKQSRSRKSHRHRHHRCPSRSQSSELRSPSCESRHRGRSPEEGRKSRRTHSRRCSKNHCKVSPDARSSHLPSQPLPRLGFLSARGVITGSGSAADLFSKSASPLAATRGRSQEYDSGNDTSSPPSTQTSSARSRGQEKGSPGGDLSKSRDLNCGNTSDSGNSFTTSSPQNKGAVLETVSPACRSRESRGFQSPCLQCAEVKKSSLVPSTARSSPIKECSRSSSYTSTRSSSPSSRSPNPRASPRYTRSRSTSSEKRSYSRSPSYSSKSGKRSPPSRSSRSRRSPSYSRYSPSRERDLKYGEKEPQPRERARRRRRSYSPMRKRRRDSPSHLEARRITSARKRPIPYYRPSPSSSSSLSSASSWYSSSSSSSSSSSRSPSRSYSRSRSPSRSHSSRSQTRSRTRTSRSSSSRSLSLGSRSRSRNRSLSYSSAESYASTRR
Assay: AP-MS nSR100 interaction partners from mouse N2A cells (Table 5)
Format: binding
Settings: bait Srrm4, biological replicate 1 (first number of the cell), AP-MS
property label: Spectra (number of spectra for the prey in the purification of the bait)
Number only, please.

Csnk2a1 (protein, UniProt Q60737 1-391, looked up) Casein kinase II subunit alpha: MSGPVPSRARVYTDVNTHRPREYWDYESHVVEWGNQDDYQLVRKLGRGKYSEVFEAINITNNEKVVVKILKPVKKKKIKREIKILENLRGGPNIITLADIVKDPVSRTPALVFEHVNNTDFKQLYQTLTDYDIRFYMYEILKALDYCHSMGIMHRDVKPHNVMIDHEHRKLRLIDWGLAEFYHPGQEYNVRVASRYFKGPELLVDYQMYDYSLDMWSLGCMLASMIFRKEPFFHGHDNYDQLVRIAKVLGTEDLYDYIDKYNIELDPRFNDILGRHSRKRWERFVHSENQHLVSPEALDFLDKLLRYDHQSRLTAREAMEHPYFYTVVKDQARMSSTSMAGGSTPVSSANMMSGISSVPTPSPLGPLAGSPVIAAANSLGIPVPAAAGAQQ    44

Turning to the following molecule.
stdin: What value of Spectra (number of spectra for the prey in the purification of the bait) has been recorded for this entry: Snrpb2 (protein, UniProt Q9CQI7 1-225, looked up) U2 small nuclear …: MDIRPNHTIYINNMNDKIKKEELKRSLYALFSQFGHVVDIVALKTMKMRGQAFVIFKELGSSTNALRQLQGFPFYGKPMRIQYAKTDSDIISKMRGTFADKEKKKEKKKAKTMEQAAAAANKKPGQGTPNAANTQGTAAPNPQVPDYPPNYILFLNNLPEETNEMMLSMLFNQFPGFKEVRLVPGRHDIAFVEFENDGQAGAARDALQGFKITPSHAMKITYAKK
stdout: 6
